# ASSAY_PROTOCOL: AUC (0 to 24 hrs) in 129SvEv mouse model of CaCl2-induced abdominal aortic aneurysm at 30 mg/kg dosed through oral gavage BID for 4 weeks with first dose given one day prior to surgery
# Type: ADME, organism-based, Abdomen
# Parameters: time < 24 hr, dose 30 mg/kg, route oral
# CONDITION_DESCRIPTION: in vivo
VALUE_KIND: AUC(0-t) at 24 h (ng·h/mL)
Give a bare numeral; the unit ng·h/mL is implied.

Ask: Record request: AUC(0-t) at 24 h value, item CNC(=O)O[C@H]1COc2ccc(N3CCN(C4COC4)CC3)cc2[C@@H]1NC(=O)c1ccc(F)cc1
Result: 35400

====

Each entry below carries its measured IC50, system: UniProtKB O70370.
Sequence (O70370 whole entry): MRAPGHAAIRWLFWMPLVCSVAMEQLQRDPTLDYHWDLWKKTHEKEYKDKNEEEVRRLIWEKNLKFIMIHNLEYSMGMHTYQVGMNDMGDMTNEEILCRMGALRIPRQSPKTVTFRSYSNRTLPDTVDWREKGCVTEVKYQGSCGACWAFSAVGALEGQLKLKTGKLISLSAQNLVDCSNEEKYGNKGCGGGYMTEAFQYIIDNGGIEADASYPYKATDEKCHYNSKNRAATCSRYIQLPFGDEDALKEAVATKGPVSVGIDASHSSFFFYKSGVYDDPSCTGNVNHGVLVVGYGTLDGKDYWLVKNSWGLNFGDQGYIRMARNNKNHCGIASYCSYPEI
Give a bare numeral; the unit nM is implied.

COMPOUND | IC50 [nM]
CN1CCN(c2ccc3c(c2)C(NC(=O)c2ccccc2)CCC3)CC1 (centres undefined) | 3930
CNC(=O)O[C@H]1CCc2ccc(N3CCN(C4COC4)CC3)cc2[C@@H]1NC(=O)c1ccc(F)cc1 | 3.91
O=C(N[C@@H]1CCCc2ccc(/N=C/N3CCCCCC3)cc21)c1ccc(Br)cc1 | 1570

Okay, next one:
Ask: Record request: IC50 value, item CNC(=O)O[C@H]1COc2ccc(N3CCN(C4COC4)CC3)cc2[C@@H]1NC(=O)c1ccc(F)cc1
Result: 1.67

====

# SYSTEM_NAME: hERG (Homo sapiens)
# Sequence (Q12809 whole entry): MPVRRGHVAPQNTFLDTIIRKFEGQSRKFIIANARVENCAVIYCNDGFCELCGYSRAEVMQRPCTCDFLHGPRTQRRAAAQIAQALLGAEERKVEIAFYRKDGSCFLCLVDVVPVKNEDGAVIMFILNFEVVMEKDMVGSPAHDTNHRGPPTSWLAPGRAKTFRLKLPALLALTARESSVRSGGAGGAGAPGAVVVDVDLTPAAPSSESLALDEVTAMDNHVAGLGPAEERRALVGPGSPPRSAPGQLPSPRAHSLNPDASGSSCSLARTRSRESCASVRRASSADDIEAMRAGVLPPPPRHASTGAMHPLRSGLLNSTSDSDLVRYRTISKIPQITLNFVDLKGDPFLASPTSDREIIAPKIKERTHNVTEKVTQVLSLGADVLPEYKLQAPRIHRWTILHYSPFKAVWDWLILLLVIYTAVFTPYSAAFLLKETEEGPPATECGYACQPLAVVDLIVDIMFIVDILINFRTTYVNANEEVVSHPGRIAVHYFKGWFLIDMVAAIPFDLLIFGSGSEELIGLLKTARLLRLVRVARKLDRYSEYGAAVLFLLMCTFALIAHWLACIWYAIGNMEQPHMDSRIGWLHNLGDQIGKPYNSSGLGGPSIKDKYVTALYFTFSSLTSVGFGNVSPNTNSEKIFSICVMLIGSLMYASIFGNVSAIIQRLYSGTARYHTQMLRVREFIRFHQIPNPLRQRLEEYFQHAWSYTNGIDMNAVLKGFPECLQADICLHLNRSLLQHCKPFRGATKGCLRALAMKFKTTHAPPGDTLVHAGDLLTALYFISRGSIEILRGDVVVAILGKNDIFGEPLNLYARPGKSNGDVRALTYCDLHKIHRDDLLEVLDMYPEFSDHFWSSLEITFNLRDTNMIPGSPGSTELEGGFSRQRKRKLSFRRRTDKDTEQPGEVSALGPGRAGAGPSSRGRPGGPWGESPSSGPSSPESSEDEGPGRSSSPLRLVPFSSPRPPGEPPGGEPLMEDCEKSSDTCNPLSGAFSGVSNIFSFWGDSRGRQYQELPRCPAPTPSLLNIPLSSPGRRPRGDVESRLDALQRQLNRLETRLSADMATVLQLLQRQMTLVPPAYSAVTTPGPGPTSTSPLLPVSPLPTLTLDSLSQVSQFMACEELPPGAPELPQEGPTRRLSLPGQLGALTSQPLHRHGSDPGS
# ASSAY_PROTOCOL: Displacement of [3H]astemizole form human ERG expressed in HEK293 cell membranes at 100 uM
# CONDITION_DESCRIPTION: HEK293 cell membranes that express human ERG, probe [3H]astemizole
VALUE_KIND: inhibition at 100 µM (%)
Give a bare numeral; the unit % is implied.

Ask: Record request: inhibition at 100 µM value, item CNC(=O)O[C@H]1COc2ccc(N3CCN(C4COC4)CC3)cc2[C@@H]1NC(=O)c1ccc(F)cc1
Result: 6

====

# ASSAY_PROTOCOL: Solubility in simulated gastric fluid
# Assay type: ADME
Examples of molecules with documented solubility follow.
Give a bare numeral; the unit µg/mL is implied.

SMILES | OUTPUT_UNIT | solubility
CNC(=O)O[C@H]1COc2ccc(N3CCN(C4COC4)CC3)cc2[C@@H]1NC(=O)c1ccc(F)cc1 | µg/mL | 1440

Okay, next one:
Ask: Record request: solubility value, item CNC(=O)O[C@H]1CCc2ccc(N3CCN(C4COC4)CC3)cc2[C@@H]1NC(=O)c1ccc(F)cc1
Result: 1130

====

# ASSAY_PROTOCOL: Volume of distribution in Beagle dog at 1 mg/kg, iv or 3 mg/kg, po
# Type: ADME, organism-based, Canis lupus familiaris
# CONDITION_DESCRIPTION: in vivo
VALUE_KIND: Vd

SMILES | Vd
CNC(=O)O[C@H]1CCc2ccc(N3CCN(C4COC4)CC3)cc2[C@@H]1NC(=O)c1ccc(F)cc1 | < 1 L/kg

Ask: Record request: Vd value, item CNC(=O)O[C@H]1COc2ccc(N3CCN(C4COC4)CC3)cc2[C@@H]1NC(=O)c1ccc(F)cc1
Result: < 1 L/kg

====

# ASSAY_PROTOCOL: Drug metabolism in mouse liver microsomes after 30 mins at 4 uM
# Type: ADME
# CONDITION_DESCRIPTION: read-out: Drug metabolism
Examples of molecules with documented metabolised at 0.5 h, 4 µM follow.

SMILES | EXPERIMENTAL_VALUE
CNC(=O)O[C@H]1CCc2ccc(N3CCN(C4COC4)CC3)cc2[C@@H]1NC(=O)c1ccc(F)cc1 | < 20%

Ask: Record request: metabolised at 0.5 h, 4 µM value, item CNC(=O)O[C@H]1COc2ccc(N3CCN(C4COC4)CC3)cc2[C@@H]1NC(=O)c1ccc(F)cc1
Result: < 20%

====

Examples of compounds with documented pKa follow.
# ASSAY_PROTOCOL: Dissociation constant, basic pKa of the compound
# Format: physicochemical
Form: value (number only, do not type unit).

Ask: Record request: pKa value, item CNC(=O)O[C@H]1COc2ccc(N3CCN(C4COC4)CC3)cc2[C@@H]1NC(=O)c1ccc(F)cc1
Result: 5.11

Ask: Record request: pKa value, item CNC(=O)O[C@H]1CCc2ccc(N3CCN(C4COC4)CC3)cc2[C@@H]1NC(=O)c1ccc(F)cc1
Result: 5

====

# ASSAY_PROTOCOL: Oral bioavailability in Beagle dog at 3 mg/kg
# Format: ADME, organism-based, Canis lupus familiaris
# CONDITION_DESCRIPTION: in vivo
Examples of compounds with documented bioavailability follow.

SMILES | VALUE_KIND | EXPERIMENTAL_VALUE
CNC(=O)O[C@H]1CCc2ccc(N3CCN(C4COC4)CC3)cc2[C@@H]1NC(=O)c1ccc(F)cc1 | bioavailability | > 75%

Okay, next one:
Ask: Record request: bioavailability value, item CNC(=O)O[C@H]1COc2ccc(N3CCN(C4COC4)CC3)cc2[C@@H]1NC(=O)c1ccc(F)cc1
Result: > 75%

====

# SYSTEM_NAME: CYP2C9 (Homo sapiens)
# Sequence (P11712 whole entry): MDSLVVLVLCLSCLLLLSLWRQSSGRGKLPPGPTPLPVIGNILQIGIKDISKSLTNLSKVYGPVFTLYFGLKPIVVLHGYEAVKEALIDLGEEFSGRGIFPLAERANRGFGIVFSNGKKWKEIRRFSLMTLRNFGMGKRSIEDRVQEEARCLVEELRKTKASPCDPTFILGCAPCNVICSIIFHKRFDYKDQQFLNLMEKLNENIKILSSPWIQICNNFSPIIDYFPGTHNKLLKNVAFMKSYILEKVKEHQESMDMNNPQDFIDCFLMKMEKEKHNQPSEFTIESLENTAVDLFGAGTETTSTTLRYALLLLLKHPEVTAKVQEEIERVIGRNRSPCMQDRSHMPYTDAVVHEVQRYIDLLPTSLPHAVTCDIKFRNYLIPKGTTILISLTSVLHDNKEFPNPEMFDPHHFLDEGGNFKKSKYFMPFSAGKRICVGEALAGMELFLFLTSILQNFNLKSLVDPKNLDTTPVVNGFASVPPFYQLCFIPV
# ASSAY_PROTOCOL: Inhibition of CYP2C9 (unknown origin) using diclofenac substrate at 10 uM
# Assay type: ADME
# CONDITION_DESCRIPTION: probe diclofenac
VALUE_KIND: inhibition at 10 µM

SMILES | SYSTEM_NAME | inhibition at 10 µM
CNC(=O)O[C@H]1COc2ccc(N3CCN(C4COC4)CC3)cc2[C@@H]1NC(=O)c1ccc(F)cc1 | CYP2C9 (Homo sapiens) | < 15%

Okay, next one:
Ask: Record request: inhibition at 10 µM value, item CNC(=O)O[C@H]1CCc2ccc(N3CCN(C4COC4)CC3)cc2[C@@H]1NC(=O)c1ccc(F)cc1
Result: < 15%

====

# Species on record: Rattus norvegicus
# ASSAY_PROTOCOL: Inhibition of rat cathepsin S G137C mutant using benzyloxycarbonyl-L-Leucyl-L-Arginine 4-Methyl-coumaryl-7-amide substrate by FRET assay
Calls of active or inactive are those of the source. The calls are words filed in the database; no cut-off is given here.
VALUE_KIND: inhibition

COMPOUND | inhibition
CNC(=O)O[C@H]1CCc2ccc(N3CCN(C4COC4)CC3)cc2[C@@H]1NC(=O)c1ccc(F)cc1 | inactive
CNC(=O)O[C@H]1COc2ccc(N3CCN(C4COC4)CC3)cc2[C@@H]1NC(=O)c1ccc(F)cc1 | inactive
CN1CCN(c2ccc3c(c2)C(NC(=O)c2ccccc2)CCC3)CC1 (stereo not given) | inactive
CN1CCN(C(=O)Nc2ccc3c(c2)C(NC(=O)c2ccccc2)CCC3)CC1 (stereo not given) | inactive

Ask: Record request: inhibition value, item O=C(N[C@@H]1CCCc2ccc(/N=C/N3CCCCCC3)cc21)c1ccc(Br)cc1
Result: inactive

====

Examples of compounds with documented metabolised at 0.5 h, 4 µM follow.
# ASSAY_PROTOCOL: Drug metabolism in human liver microsomes after 30 mins at 4 uM
# Format: ADME
# CONDITION_DESCRIPTION: read-out: Drug metabolism

SMILES | EXPERIMENTAL_VALUE
CNC(=O)O[C@H]1CCc2ccc(N3CCN(C4COC4)CC3)cc2[C@@H]1NC(=O)c1ccc(F)cc1 | < 20%

Okay, next one:
Ask: Record request: metabolised at 0.5 h, 4 µM value, item CNC(=O)O[C@H]1COc2ccc(N3CCN(C4COC4)CC3)cc2[C@@H]1NC(=O)c1ccc(F)cc1
Result: < 20%

====

# ASSAY_PROTOCOL: Drug metabolism in rat liver microsomes after 30 mins at 4 uM
# Type: ADME
# CONDITION_DESCRIPTION: read-out: Drug metabolism
Examples of compounds with documented metabolised at 0.5 h, 4 µM follow.

SMILES | metabolised at 0.5 h, 4 µM
CNC(=O)O[C@H]1CCc2ccc(N3CCN(C4COC4)CC3)cc2[C@@H]1NC(=O)c1ccc(F)cc1 | < 20%

Okay, next one:
Ask: Record request: metabolised at 0.5 h, 4 µM value, item CNC(=O)O[C@H]1COc2ccc(N3CCN(C4COC4)CC3)cc2[C@@H]1NC(=O)c1ccc(F)cc1
Result: < 20%

====

# SYSTEM_NAME: CYP2D6 (Homo sapiens, UniProt P10635)
# Sequence (P10635 whole entry): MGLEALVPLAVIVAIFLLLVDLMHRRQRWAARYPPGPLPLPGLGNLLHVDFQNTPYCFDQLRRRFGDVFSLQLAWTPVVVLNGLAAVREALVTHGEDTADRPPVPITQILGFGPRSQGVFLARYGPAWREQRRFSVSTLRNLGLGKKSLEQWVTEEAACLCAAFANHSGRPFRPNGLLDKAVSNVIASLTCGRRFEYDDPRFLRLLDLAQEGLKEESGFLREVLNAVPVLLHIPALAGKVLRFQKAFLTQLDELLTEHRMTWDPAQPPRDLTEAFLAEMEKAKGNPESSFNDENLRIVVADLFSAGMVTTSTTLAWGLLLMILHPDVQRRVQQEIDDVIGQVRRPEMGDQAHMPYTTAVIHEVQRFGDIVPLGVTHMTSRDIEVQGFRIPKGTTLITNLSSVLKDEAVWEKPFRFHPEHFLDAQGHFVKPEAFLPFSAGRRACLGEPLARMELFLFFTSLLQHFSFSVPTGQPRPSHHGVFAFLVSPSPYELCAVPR
# ASSAY_PROTOCOL: Inhibition of CYP2D6 (unknown origin) using bufuralol substrate at 10 uM
# Format: ADME
# CONDITION_DESCRIPTION: probe bufuralol
VALUE_KIND: inhibition at 10 µM

SMILES | VALUE_KIND | EXPERIMENTAL_VALUE
CNC(=O)O[C@H]1COc2ccc(N3CCN(C4COC4)CC3)cc2[C@@H]1NC(=O)c1ccc(F)cc1 | inhibition at 10 µM | < 15%

Okay, next one:
Ask: Record request: inhibition at 10 µM value, item CNC(=O)O[C@H]1CCc2ccc(N3CCN(C4COC4)CC3)cc2[C@@H]1NC(=O)c1ccc(F)cc1
Result: < 15%
